- TEST: chemical genetic growth profiling, strain panel (AID 1159580);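 also: tested at 20 µM; growth read once vehicle control cultures reached saturation at 30 °C; 1 = growth at the plate median or of vehicle wells; lower values mean less growth of the strain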
- MEASUREMENT PARAMETERS: S. cerevisiae deletion strains, growth OD, locus YHR079C, strain IRE1 (second series), stronger effect = lower value
The campaign covered roughly 5,500 compounds. About 2,000 (36%) were called active. Inconclusive results (about 18%) are left out. The list shows a part of the results.
Hi there, I'd appreciate the recorded normalized growth for every entry that follows.
Answers are plain numbers.

The examples below pair each entry with its known result.
1) CC12CC3CC(C)(C1)CC(N)(C3)C2
1.01
2) COC(=O)CCC(C)[C@H]1CCC2C3C(C[C@H](O)[C@@]21C)[C@@]1(C)CC[C@@H](O)C[C@H]1C[C@H]3O (some centres undefined)
1.03
3) CC(=O)O[C@H]1CC[C@]2(C)C3=CC(=O)[C@@]4(C)C(C[C@@H]5OC6(OCC(C)CC6Br)[C@@H](C)[C@@H]54)C3CC[C@H]2C1 (some centres undefined)
0.984
4) CCCC(C(=O)OCCN(CC)CC)(c1ccccc1)c1ccccc1
1.01
5) CC(C)CCCC(C)C1CCC2C3CC[C@H]4CCCC[C@]4(C)C3CC[C@]12C (some centres undefined)
1

Respectfully, I request normalized growth for each entry included below.
1. CCN(CC)CCOC(=O)C(c1ccccc1)c1ccccc1
2. NS(=O)(=O)c1cc2c(cc1Cl)NC(C1CC3C=CC1C3)NS2(=O)=O (centres undefined)
3. CCN(CCCc1ccccc1)CCCc1ccccc1

## Result
[0.99, 1.01, 1.03]

Respectfully, I request normalized growth for each entry included below.
1. COC(=O)CCC(C)C1CCC2C3CC[C@@H]4C[C@H](O)CC[C@]4(C)C3C[C@H](O)[C@]12C (some centres undefined)
2. CN(C(=O)CN(CCO)CC(=O)N(C)C(C)(C)Cc1ccccc1)C(C)(C)Cc1ccccc1
3. CC1(C)C(O)CC(O)C2(C)C1CC(O)C1(C)C2CCC2(C)C(c3ccoc3)OC(=O)C3OC321 (centres undefined)

## Result
1
0.975
1.02

Respectfully, I request normalized growth for each entry included below.
1. CC(CCC(=O)O)[C@H]1CCC2C3CC[C@@H]4C[C@H](O)CC[C@]4(C)C3C[C@H](O)[C@@]21C (some centres undefined)
2. COc1cc2c(cc1O)C(Cc1ccc(O)cc1)N(C)CC2 (centres undefined)
3. COc1cc(S(C)=O)ccc1-c1nc2ncccc2[nH]1 (centres undefined)

## Result
1: 0.981; 2: 0.991; 3: 0.997

This collection of values is drawn from PubChem BioAssay AID1159580.
